tgt: Beta sliding clamp (Escherichia coli (strain K12), UniProt P0A988)
Sequence (P0A988 whole entry): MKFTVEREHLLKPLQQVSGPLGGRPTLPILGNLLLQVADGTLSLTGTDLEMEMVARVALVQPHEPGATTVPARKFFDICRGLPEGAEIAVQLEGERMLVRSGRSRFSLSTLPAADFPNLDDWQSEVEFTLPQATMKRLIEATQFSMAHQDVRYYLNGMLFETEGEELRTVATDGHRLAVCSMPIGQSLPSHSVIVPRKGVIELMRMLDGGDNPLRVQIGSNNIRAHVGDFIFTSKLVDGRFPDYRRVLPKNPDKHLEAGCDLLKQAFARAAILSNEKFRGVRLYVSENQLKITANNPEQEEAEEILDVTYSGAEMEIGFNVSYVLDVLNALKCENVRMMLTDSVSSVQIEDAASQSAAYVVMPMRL
method_summary: Inhibition of Escherichia coli DNA sliding clamp protein using N-fluorescein (FAM)-QLDLF-OH tracer by fluorescence polarization assay
Provide the recorded pIC50 for the entries that follow.
One number for each entry, as −log10 of the molar value.

> print(dat)
                                   compound  assay.readout  quantitative.result
1  NC(=O)CNC(=O)Cn1c2c(c3cc(Br)ccc31)CC[C@@H](C(=O)O)C2          pIC50                 3.77
2    O=C(O)[C@H]1CCc2c([nH]c3ccc(Br)cc23)C1          pIC50                 3.48
3  NC(=O)CN1CCC(NC(=O)Cn2c3c(c4cc(Br)ccc42)CC[C@@H](C(=O)O)C3)CC1          pIC50                 3.51
4  CCNC(=O)Cn1c2c(c3cc(Cl)ccc31)CC[C@@H](C(=O)O)C2          pIC50                 3.46
5    O=C(O)[C@@H]1CCc2c([nH]c3ccc(F)cc23)C1          pIC50                 3.09

I need pIC50 for every entry listed below, if you could help.
1. O=C(O)C1CCc2c([nH]c3ccc(Cl)cc23)C1 (racemic)
2. O=C(O)[C@H]1CCc2c([nH]c3ccc(Cl)cc23)C1

[3.52, 3.35]

For every item below, please supply its pIC50.
1. O=C(O)CNC(=O)Cn1c2c(c3cc(Cl)ccc31)CC[C@@H](C(=O)O)C2
2. O=C(Cn1c2c(c3cc(Br)ccc31)CC[C@@H](C(=O)O)C2)N[C@@H](Cc1ccccc1)C(=O)O
3. NC(=O)Cc1ccc(NC(=O)Cn2c3c(c4cc(Cl)ccc42)CC[C@@H](C(=O)O)C3)cc1

4.07
4.57
3.44

Your task in this section: give pIC50 for each listed record.
1. NC(=O)Cn1c2c(c3cc(Br)ccc31)CC[C@H](C(=O)O)C2
2. NC(=O)Cn1c2c(c3cc(Cl)ccc31)CC[C@@H](C(=O)O)C2
3. CC(C)(C)OC(=O)N1CCC(CNC(=O)Cn2c3c(c4cc(Br)ccc42)CC[C@@H](C(=O)O)C3)CC1
4. O=C(O)CNC(=O)Cn1c2c(c3cc(Br)ccc31)CC[C@@H](C(=O)O)C2
5. NC(=O)Cn1c2c(c3cc(Cl)ccc31)CC[C@H](C(=O)O)C2

3.55
3.43
3.82
4.70
3.05
